This collection of values is drawn from patent US11306063B2.

- Tested On: USP2 full length (USP2^FL) (Homo sapiens)
- Construct: purchased BioSciences 80352
- Sequence (O75604 whole entry): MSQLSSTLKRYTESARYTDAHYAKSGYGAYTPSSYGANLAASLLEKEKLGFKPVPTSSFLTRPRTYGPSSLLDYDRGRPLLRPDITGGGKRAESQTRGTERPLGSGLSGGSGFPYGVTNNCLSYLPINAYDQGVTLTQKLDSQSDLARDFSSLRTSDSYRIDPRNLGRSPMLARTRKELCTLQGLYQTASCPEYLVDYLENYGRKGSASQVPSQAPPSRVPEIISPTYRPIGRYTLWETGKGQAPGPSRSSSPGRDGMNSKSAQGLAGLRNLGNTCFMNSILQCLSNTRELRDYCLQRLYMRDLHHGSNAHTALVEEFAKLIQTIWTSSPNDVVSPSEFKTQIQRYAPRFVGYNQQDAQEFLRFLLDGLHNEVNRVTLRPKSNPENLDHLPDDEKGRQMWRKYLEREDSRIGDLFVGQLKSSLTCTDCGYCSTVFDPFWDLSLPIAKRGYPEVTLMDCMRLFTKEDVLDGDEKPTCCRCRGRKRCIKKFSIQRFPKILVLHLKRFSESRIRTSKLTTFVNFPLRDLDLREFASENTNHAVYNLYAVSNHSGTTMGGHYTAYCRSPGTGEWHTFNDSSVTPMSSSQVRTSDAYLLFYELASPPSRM
- Measurement Notes: Inhibition of Ub-AMC hydrolysis by USP2 full length
- Format: biochemical
- Condition Parameters: 5 μM compound; Ub-AMC at 1 μM; Table 1a
Property Measured: inhibition at 5 µM (%)

Chemical Structure: Cc1ccc(S(=O)(=O)Cc2nc3c(nc2CS(=O)(=O)c2ccc(C)cc2)C(=O)c2ccccc2C3=O)cc1
Measured Number: 49
//
Chemical Structure: Cc1cc(C)c(S(=O)(=O)Cc2nc3c(nc2CS(=O)(=O)c2c(C)cc(C)cc2C)C(=O)c2ccccc2C3=O)c(C)c1
Measured Number: 51
//
Chemical Structure: O=C1c2ccccc2C(=O)c2nc(CCl)c(CCl)nc21
Measured Number: 50

###

- Tested On: USP8^CD (purified catalytic domain of USP8) (Homo sapiens)
- Construct: the purified catalytic domain of USP8 (USP8^CD, in-house purified); made in house; host or cells: E. coli BL21 Gold
- Sequence (P40818 777-1109 limits assumed): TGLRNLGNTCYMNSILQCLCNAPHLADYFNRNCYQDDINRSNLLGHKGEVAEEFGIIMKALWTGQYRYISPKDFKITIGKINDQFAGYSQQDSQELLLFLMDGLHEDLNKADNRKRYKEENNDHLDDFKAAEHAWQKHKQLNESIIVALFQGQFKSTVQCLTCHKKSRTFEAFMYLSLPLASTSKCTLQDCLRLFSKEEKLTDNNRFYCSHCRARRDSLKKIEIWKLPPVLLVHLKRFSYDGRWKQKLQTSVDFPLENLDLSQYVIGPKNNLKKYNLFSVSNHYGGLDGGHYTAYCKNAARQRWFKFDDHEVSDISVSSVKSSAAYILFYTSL
- Measurement Notes: Inhibition of purified USP8^CD enzymatic activity (Ub-AMC or Ub-Rho substrate)
- Type: biochemical
- Condition Parameters: 10 μM compound; Table 1d
Property Measured: inhibition at 10 µM (%)

Chemical Structure: O=C1c2ccccc2C(=O)c2nc(CS(=O)(=O)c3ccccc3F)c(CS(=O)(=O)c3ccccc3F)nc21
inhibition at 10 µM, %: 97
//
Chemical Structure: COc1ccc(S(=O)(=O)Cc2nc3c(nc2CS(=O)(=O)c2ccc(OC)c(OC)c2)C(=O)c2ccccc2C3=O)cc1OC
inhibition at 10 µM, %: 71
//
Chemical Structure: CCCCCS(=O)(=O)Cc1nc2c(nc1CS(=O)(=O)CCCCC)C(=O)c1ccccc1C2=O
inhibition at 10 µM, %: 91

###

- Tested On: USP2^CD (purified catalytic domain of USP2) (Homo sapiens)
- Construct: The purified catalytic domain of USP2 (USP2^CD, in-house purified); His; made in house; host or cells: E. coli BL21 Gold
- Sequence (O75604 267-599 limits assumed): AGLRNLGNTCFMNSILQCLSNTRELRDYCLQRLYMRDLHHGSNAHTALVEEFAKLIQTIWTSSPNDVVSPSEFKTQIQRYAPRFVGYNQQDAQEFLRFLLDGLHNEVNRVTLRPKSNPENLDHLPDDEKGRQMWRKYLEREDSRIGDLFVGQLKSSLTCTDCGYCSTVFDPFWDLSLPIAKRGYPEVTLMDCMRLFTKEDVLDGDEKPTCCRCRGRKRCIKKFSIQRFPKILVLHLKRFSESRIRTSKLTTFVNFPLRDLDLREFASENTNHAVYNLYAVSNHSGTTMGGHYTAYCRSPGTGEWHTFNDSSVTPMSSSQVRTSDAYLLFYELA
- Measurement Notes: Inhibition of purified USP2^CD enzymatic activity (Ub-AMC or Ub-Rho substrate)
- Type: biochemical
- Condition Parameters: 0.5 μM compound; Table 1c
- Method: USP2CD or USP8CD were expressed in E. coli BL21 Gold. Cells were grown in LB Miller to mid-log phase and induced by addition of 0.5 mM IPTG for USP2CD for 5 h at 20° C., while 1 mM IPTG was added for USP8CD for 3 h at 37° C. Then, cells were harvested and frozen at −80° C. For His-tagged USP2CD, cells were resuspended in buffer C (10 mM TRIS pH 8.0, 100 mM NaCl, 10 mM Imidazole) and lysed using a sonicator. […]
Property Measured: inhibition at 0.5 µM (%)

Molecule: COc1ccc(S(=O)(=O)Cc2nc3c(nc2CS(=O)(=O)c2ccc(OC)cc2)C(=O)c2ccccc2C3=O)cc1 [PCR7994]
Measured Number: 26

a. CCCS(=O)(=O)Cc1nc2c(nc1CS(=O)(=O)CCC)C(=O)c1ccccc1C2=O [VIN6074]
b. O=C1c2ccccc2C(=O)c2nc(CS(=O)(=O)c3ccc4c(c3)OCCO4)c(CS(=O)(=O)c3ccc4c(c3)OCCO4)nc21 [OVM19]
Exercise: compare a and b ; which one has the greater inhibition at 0.5 µM? # reply format: chosen label
a
